Ref: PubChem BioAssay AID1918944

# System: 786-0 complex spheroid viability
# measurementNotes: Anticancer human tumor 786-0 cell line growth inhibition;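 also: spheroids exposed to agents for seven days before readout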
# particulars: second compound 1 µM; first compound 1 µM; active compounds read low
Here, each record is paired with measured viability, T/C data.

compound	testTarget	viability, T/C / %
Nc1ncn(C2CC(O)C(CO)O2)c(=O)n1 (stereo not drawn) + NC1CCC(NC2CC2c2ccccc2)CC1	786-0 complex spheroid viability	59
O=C(C=Cn1cnc(-c2cc(C(F)(F)F)cc(C(F)(F)F)c2)n1)NNc1cnccn1 + NC1CC1c1ccc(-c2cccc(O)c2)cc1	786-0 complex spheroid viability	22.7
COc1ccc([C@@H](O)c2cc(-c3ncnc4cc(N5CCOCC5)ccc34)c(F)cc2Cl)nn1 + NC1CC1c1ccc(-c2cccc(O)c2)cc1	786-0 complex spheroid viability	80
CC1(C)CCC(CN2CCN(c3ccc(C(=O)NS(=O)(=O)c4ccc(NCC5CCOCC5)c([N+](=O)[O-])c4)c(Oc4cnc5[nH]ccc5c4)c3)CC2)=C(c2ccc(Cl)cc2)C1 + NC1CC1c1ccc(-c2cccc(O)c2)cc1	786-0 complex spheroid viability	106
CC1COCCN1c1cc(-c2ccnn2C)c2ccnc(-c3ccn[nH]3)c2n1 (stereo not drawn) + NC1CCC(NC2CC2c2ccccc2)CC1	786-0 complex spheroid viability	11.4
CC1(C)CCC(CN2CCN(c3ccc(C(=O)NS(=O)(=O)c4ccc(NCC5CCOCC5)c([N+](=O)[O-])c4)c(Oc4cnc5[nH]ccc5c4)c3)CC2)=C(c2ccc(Cl)cc2)C1 + NC1CCC(NC2CC2c2ccccc2)CC1	786-0 complex spheroid viability	108
O=C(c1cc(Cc2n[nH]c(=O)c3ccccc23)ccc1F)N1CCN(C(=O)C2CC2)CC1 + NC1CC1c1ccc(-c2cccc(O)c2)cc1	786-0 complex spheroid viability	108
COc1cc(Nc2ncc3c(n2)-c2ccc(Cl)cc2C(c2c(F)cccc2OC)=NC3)ccc1C(=O)O + NC1CC1c1ccc(-c2cccc(O)c2)cc1	786-0 complex spheroid viability	42.2
O=C(C=Cn1cnc(-c2cc(C(F)(F)F)cc(C(F)(F)F)c2)n1)NNc1cnccn1 + NC1CCC(NC2CC2c2ccccc2)CC1	786-0 complex spheroid viability	15.7
Nc1ncn(C2CC(O)C(CO)O2)c(=O)n1 (stereo not drawn) + NC1CC1c1ccc(-c2cccc(O)c2)cc1	786-0 complex spheroid viability	82.5
CC(C)c1c(-c2ccccc2)nc2c(C#N)c[nH]n2c1=O + NC1CC1c1ccc(-c2cccc(O)c2)cc1	786-0 complex spheroid viability	118
CC1COCCN1c1cc(C2(S(C)(=N)=O)CC2)nc(-c2ccnc3[nH]ccc23)n1 (stereo not drawn) + NC1CCC(NC2CC2c2ccccc2)CC1	786-0 complex spheroid viability	40
O=C(c1cc(Cc2n[nH]c(=O)c3ccccc23)ccc1F)N1CCN(C(=O)C2CC2)CC1 + NC1CCC(NC2CC2c2ccccc2)CC1	786-0 complex spheroid viability	92.9
COc1cc(Nc2ncc3c(n2)-c2ccc(Cl)cc2C(c2c(F)cccc2OC)=NC3)ccc1C(=O)O + NC1CCC(NC2CC2c2ccccc2)CC1	786-0 complex spheroid viability	42.5
CC1COCCN1c1cc(-c2ccnn2C)c2ccnc(-c3ccn[nH]3)c2n1 (stereo not drawn) + NC1CC1c1ccc(-c2cccc(O)c2)cc1	786-0 complex spheroid viability	17
CC1COCCN1c1cc(C2(S(C)(=N)=O)CC2)nc(-c2ccnc3[nH]ccc23)n1 (stereo not drawn) + NC1CC1c1ccc(-c2cccc(O)c2)cc1	786-0 complex spheroid viability	46.4
COc1ccc([C@@H](O)c2cc(-c3ncnc4cc(N5CCOCC5)ccc34)c(F)cc2Cl)nn1 + NC1CCC(NC2CC2c2ccccc2)CC1	786-0 complex spheroid viability	104
CC(C)c1c(-c2ccccc2)nc2c(C#N)c[nH]n2c1=O + NC1CCC(NC2CC2c2ccccc2)CC1	786-0 complex spheroid viability	125
